The following compounds are shown together with reported melting point values.

### Prompt Which melting point value is on record for CCOCn1cc(C)c2c(C(=O)O)nc(-c3ccc(Cl)c(OC)c3F)nc21 ?
### Response 112 to 114 °C (dec.)

### Prompt Which melting point value is on record for COC(=O)c1nc(-c2ccc(Cl)c(OC)c2F)nc2c1N(C)CCN2C ?
### Response 97 °C

### Prompt Which melting point value is on record for COC(=O)c1nc(-c2ccc(Cl)c(OC)c2F)nc2ncccc12 ?
### Response 160 to 162 °C

### Prompt Which melting point value is on record for COC(=O)c1nc(C2CC2)nc2[nH]ccc12 ?
### Response 162 to 165 °C

---

The following compounds are shown together with reported pest or weed control at 1000 g/ha values.
test system: Amaranthus retroflexus (AMARE); test: Pre-emergence biological efficacy, glasshouse, 1000 g/ha, evaluated after 13 days (100=total damage to plant; 0=no damage to plant); assay type: in vivo; details: Amaranthus retroflexus, 312 h, rate 1,000 g/ha, read-out: Percentage damage caused to weed species, pre-emergence, AMARE
Answer in %, number only, no unit symbol.

Example compounds with recorded pest or weed control at 1000 g/ha:
COC(=O)c1nc(-c2ccc(Cl)c(N(C)C)c2F)nc2[nH]c(C)c(C)c12 [Compound 1-120]: 0
COC(=O)c1nc(-c2ccc(Cl)c(OC)c2F)cc2[nH]ccc12 [Compound 22-62]: 20
COC(=O)c1nc(-c2ccc(Cl)c(OC)c2F)nc2c1c(C)cn2C(=O)C(C)(C)C [Compound 16-64]: 0

### Prompt API: value(readout=pest or weed control at 1000 g/ha, system=Amaranthus retroflexus (AMARE)) for record COc1c(Cl)ccc(-c2nc(C(=O)O)c3c(n2)N(C(C)C)CCN3C(C)C)c1F [Compound 93-165]
### Response 0

---

tested on: Setaria faberi (SETFA); assay: Pre-emergence biological efficacy, glasshouse, 1000 g/ha, evaluated after 13 days (100=total damage to plant; 0=no damage to plant); assay type: in vivo; conditions: Setaria faberi, 312 h, rate 1,000 g/ha, read-out: Percentage damage caused to weed species, pre-emergence, SETFA
QUANTITY_KIND: pest or weed control at 1000 g/ha
Could you write the number and then its unit?

COc1c(Cl)ccc(-c2nc(C(=O)O)c3cc(C)n(CC4CC4)c3n2)c1F: 0%
CCCCCC(C)OC(=O)c1nc(-c2ccc(Cl)c(OC)c2F)cc2[nH]cc(C)c12 (centres unmarked): 20%
COC(=O)c1nc(-c2ccc(Cl)c(N(C)C)c2F)nc2[nH]c(C)cc12: 20%
COC(=O)c1nc(-c2ccc(Cl)c(OC)c2F)nc2[nH]c(-c3ccccc3)c(C)c12: 0%

### Prompt API: value(readout=pest or weed control at 1000 g/ha, system=Setaria faberi (SETFA)) for record COC(=O)c1nc(-c2ccc(Cl)c(OC)c2F)nc2c1cc(C)n2Cc1ccco1
### Response 0%

### Prompt API: value(readout=pest or weed control at 1000 g/ha, system=Setaria faberi (SETFA)) for record COc1c(Cl)ccc(-c2nc3c(c(C(=O)O)n2)N[C@@H]2CCCC[C@H]2N3)c1F
### Response 10%

### Prompt API: value(readout=pest or weed control at 1000 g/ha, system=Setaria faberi (SETFA)) for record COc1c(Cl)ccc(-c2nc3c(c(C(=O)O)n2)NC(c2ccccc2)C(c2ccccc2)N3)c1F (centres unmarked)
### Response 0%

### Prompt API: value(readout=pest or weed control at 1000 g/ha, system=Setaria faberi (SETFA)) for record COc1c(Cl)ccc(-c2nc(C(=O)O)c3c(C)cn(Cc4ccccc4[N+](=O)[O-])c3n2)c1F
### Response 0%
